Peak area for assorted compounds
Experiment: UPLC/ESI-tqMS time profile of 2,6-DCQ and its degradation products in simulated seawater (pH 8.2, darkness); OH-DCQ formation
Settings: 2,6-DCQ degradation, pH 8.2, darkness; 3.25 h
Procedure: A Waters UPLC system coupled with ESI-tqMS was used to characterize the degradation products of 2,6-DCQ. The UPLC separation was performed using an HSS T3 column (100 × 2.1 mm, 1.8 μm particle size, Waters) with a column temperature of 35 °C. […] The second aliquot was subjected to analysis of total organic halogen to quantify the collected OH-DCQ. […] The chloride ion concentration was determined using an ICS-3000 ion chromatography system (Dionex). […]

# compound, Peak area
data = [
    ("O=C1C=C(Cl)C(=O)C(Cl)=C1", 11984),
    ("O=C1C=C(Cl)C(=O)C(OC2=C(Cl)C(=O)C(Cl)=CC2=O)=C1", 3675),
    ("O=C1C=C(Cl)C(=O)C(Cl)=C1O [OH-DCQ, 3-hydroxyl-2,6-dichloro-1,4-benzoquinone]", 25472),
    ("O=C1C=C(Cl)C(=O)C=C1O [SIR 157, 3-hydroxyl-6-monochloro-1,4-benzoquinone]", 2427),
]

----------
test: UPLC/ESI-tqMS time profile of 2,6-DCQ and its degradation products in simulated seawater (pH 8.2, darkness); OH-DCQ formation; conditions: 2,6-DCQ degradation, pH 8.2, darkness; 1.5 h
Peak area for assorted compounds
property-measured: Peak area

# compound, property-measured, test-value
rows = [
    ("O=C1C=C(Cl)C(=O)C(OC2=C(Cl)C(=O)C(Cl)=CC2=O)=C1", "Peak area", 2725),
    ("O=C1C=C(Cl)C(=O)C=C1O [SIR 157, 3-hydroxyl-6-monochloro-1,4-benzoquinone]", "Peak area", 1773),
    ("O=C1C=C(Cl)C(=O)C(Cl)=C1", "Peak area", 27035.4),
    ("O=C1C=C(Cl)C(=O)C(Cl)=C1O [OH-DCQ, 3-hydroxyl-2,6-dichloro-1,4-benzoquinone]", "Peak area", 18424),
]

----------
experiment: UPLC/ESI-tqMS time profile of 2,6-DCQ and its degradation products in simulated seawater (pH 8.2, darkness); OH-DCQ formation; conditions: 2,6-DCQ degradation, pH 8.2, darkness; 14 h
Peak area for assorted compounds
property-measured: Peak area

# compound, property-measured, test-value
data = [
    ("O=C1C=C(Cl)C(=O)C=C1O [SIR 157, 3-hydroxyl-6-monochloro-1,4-benzoquinone]", "Peak area", 4868),
    ("O=C1C=C(Cl)C(=O)C(Cl)=C1O [OH-DCQ, 3-hydroxyl-2,6-dichloro-1,4-benzoquinone]", "Peak area", 24730),
    ("O=C1C=C(Cl)C(=O)C(OC2=C(Cl)C(=O)C(Cl)=CC2=O)=C1", "Peak area", 1768),
    ("O=C1C=C(Cl)C(=O)C(Cl)=C1", "Peak area", 81.2),
]

----------
Assay: UPLC/ESI-tqMS time profile of 2,6-DCQ and its degradation products in simulated seawater (pH 8.2, darkness); OH-DCQ formation
Conditions: 2,6-DCQ degradation, pH 8.2, darkness; 10 h
Protocol: A Waters UPLC system coupled with ESI-tqMS was used to characterize the degradation products of 2,6-DCQ. The UPLC separation was performed using an HSS T3 column (100 × 2.1 mm, 1.8 μm particle size, Waters) with a column temperature of 35 °C. […] The second aliquot was subjected to analysis of total organic halogen to quantify the collected OH-DCQ. […] The chloride ion concentration was determined using an ICS-3000 ion chromatography system (Dionex). […]
Peak area for assorted compounds
property-measured: Peak area

# compound, property-measured, test-value
measured = [
    ("O=C1C=C(Cl)C(=O)C(OC2=C(Cl)C(=O)C(Cl)=CC2=O)=C1 [SIR 333]", "Peak area", 2830),
    ("O=C1C=C(Cl)C(=O)C=C1O [SIR 157, 3-hydroxyl-6-monochloro-1,4-benzoquinone]", "Peak area", 4560),
    ("O=C1C=C(Cl)C(=O)C(Cl)=C1O [OH-DCQ, 3-hydroxyl-2,6-dichloro-1,4-benzoquinone]", "Peak area", 24223),
    ("O=C1C=C(Cl)C(=O)C(Cl)=C1 [2,6-DCQ, 2,6-dichlorobenzoquinone]", "Peak area", 310.8),
]

----------
test: UPLC/ESI-tqMS time profile of 2,6-DCQ and its degradation products in simulated seawater (pH 8.2, darkness); OH-DCQ formation; settings: 2,6-DCQ degradation, pH 8.2, darkness; 1.25 h
Peak area for assorted compounds
property-measured: Peak area

# compound, property-measured, test-value
measured = [
    ("O=C1C=C(Cl)C(=O)C(Cl)=C1", "Peak area", 32960.2),
    ("O=C1C=C(Cl)C(=O)C(Cl)=C1O [OH-DCQ, 3-hydroxyl-2,6-dichloro-1,4-benzoquinone]", "Peak area", 18034),
    ("O=C1C=C(Cl)C(=O)C(OC2=C(Cl)C(=O)C(Cl)=CC2=O)=C1", "Peak area", 2462),
    ("O=C1C=C(Cl)C(=O)C=C1O [SIR 157, 3-hydroxyl-6-monochloro-1,4-benzoquinone]", "Peak area", 1663),
]

----------
Peak area for assorted compounds
assay: UPLC/ESI-tqMS time profile of 2,6-DCQ and its degradation products in simulated seawater (pH 8.2, darkness); OH-DCQ formation; settings: 2,6-DCQ degradation, pH 8.2, darkness; 5 h
property-measured: Peak area

# compound, test-value
measured = [
    ("O=C1C=C(Cl)C(=O)C(OC2=C(Cl)C(=O)C(Cl)=CC2=O)=C1", 4092),
    ("O=C1C=C(Cl)C(=O)C=C1O [SIR 157, 3-hydroxyl-6-monochloro-1,4-benzoquinone]", 2821),
    ("O=C1C=C(Cl)C(=O)C(Cl)=C1", 3985.8),
    ("O=C1C=C(Cl)C(=O)C(Cl)=C1O [OH-DCQ, 3-hydroxyl-2,6-dichloro-1,4-benzoquinone]", 25931),
]

----------
test: UPLC/ESI-tqMS time profile of 2,6-DCQ and its degradation products in simulated seawater (pH 8.2, darkness); OH-DCQ formation; conditions: 2,6-DCQ degradation, pH 8.2, darkness; 5.5 h
property-measured: Peak area

# molecule, property-measured, test-value
records = [
    ("O=C1C=C(Cl)C(=O)C(OC2=C(Cl)C(=O)C(Cl)=CC2=O)=C1", "Peak area", 3835),
    ("O=C1C=C(Cl)C(=O)C(Cl)=C1O [OH-DCQ, 3-hydroxyl-2,6-dichloro-1,4-benzoquinone]", "Peak area", 27605),
    ("O=C1C=C(Cl)C(=O)C(Cl)=C1", "Peak area", 3297),
    ("O=C1C=C(Cl)C(=O)C=C1O [SIR 157, 3-hydroxyl-6-monochloro-1,4-benzoquinone]", "Peak area", 2983),
]

----------
experiment: UPLC/ESI-tqMS time profile of 2,6-DCQ and its degradation products in simulated seawater (pH 8.2, darkness); OH-DCQ formation; conditions: 2,6-DCQ degradation, pH 8.2, darkness; 1 h
property-measured: Peak area

# molecule, property-measured, test-value
data = [
    ("O=C1C=C(Cl)C(=O)C(Cl)=C1", "Peak area", 36894.2),
    ("O=C1C=C(Cl)C(=O)C=C1O [SIR 157, 3-hydroxyl-6-monochloro-1,4-benzoquinone]", "Peak area", 1656),
    ("O=C1C=C(Cl)C(=O)C(OC2=C(Cl)C(=O)C(Cl)=CC2=O)=C1", "Peak area", 2037),
    ("O=C1C=C(Cl)C(=O)C(Cl)=C1O [OH-DCQ, 3-hydroxyl-2,6-dichloro-1,4-benzoquinone]", "Peak area", 16217),
]
